- method: folding stability dG unfold (combined trypsin and chymotrypsin); higher = more stable
recorded endpoint: folding stability dG unfold (kcal/mol)

- SAGGSAGGSAGMTLEEKLKEAEEKHKKEGGPATITITDPTATGVSKTYTVTIENEGLKVESAGGSAGGSAGG [r11_954_JUSTAS]: -0.132
- SAGGSAGGSAGGDPLERKPVKVLVLHPDKPIELEVDVGLSPEEIARPFAEKGYEVRFEGSAGGSAGGSAGGS [r10_540_TrMRF]: -0.836
- SAGGSAGGSAGGGENVTTEEKVLEVSYDPSKNSYSTLVKVTVKYPNGTTEEFEVVEEKLSAGGSAGGSAGGS [r10_1214_JUSTAS]: -0.0354
- SAGGSAGGSAGGSALDPSAKVTVDRGDGKLVAVHVYPPGGKPVVILLPEEDAKKILEEVSAGGSAGGSAGGS [r4_16_TrMRF]: -0.726

====

- method: folding stability dG unfold from trypsin proteolysis; higher = more stable
Given measured folding stability dG unfold, output True if it is greater than or equal to -0.4 kcal/mol and False if not.

* SAGGSAGGSAGGPPEITVEHHPPNGYMTLTIPDGRPIEIPMPPNRPPSDVKNRAKDLIKSAGGSAGGSAGGS [r10_33_TrROS] | False
* SAGGSAGGSAGGSGMPQPTTVLTTEYYPPGVVVKKDIVYSPSGGAEEVEVSFYPSPELLSAGGSAGGSAGGS [r4_57_JUSTAS] | False
* SAGGSAGGSAGTSTTVTEKPDPNSNRTYTTTTVERTTADGTTTTVTTTVYPDSTTSTTTASAGGSAGGSAGG [r11_987_JUSTAS] | True
* SAGGSAGGSAGGSALDPSAKVTVDRGDGKLVAVHVYPPGGKPVVILLPEEDAKKILEEVSAGGSAGGSAGGS [r4_16_TrMRF] | True
* SAGGSAGGSAMIVVTLDDPEEAREAVRARFGPEVEITPLETTTVGDRVFTKIAVRVPPELASAGGSAGGSAG [r3_87_JUSTAS] | True
* SAGGSALIVLEGDLDSVVALAKEAGDPNVKVEPVADFNDDPSEPRLYRITIERDGEPDGELLFLDPSAGGSA [r15_428_TrMRF] | True
* SAGMSSSEVIDIDAGPEKLKELVAKIKKESPNYTIVVTDPETGKPTLLDPSELKNIPGPVKLTITKYPQSAG [r5_437_JUSTAS] | False

====

# Lookup of reported folding stability dG unfold keyed by entry
- method: folding stability dG unfold (combined trypsin and chymotrypsin); higher = more stable
recorded endpoint: folding stability dG unfold

- SAGGSAGGMSTISVTVPPNVSVEEVKERLKKENPNSKYEILSVSKGPGTVKAKIAYDPLPEELLSAGGSAGG [r6_623_JUSTAS]: < -1 kcal/mol
- SAGGSASIDELKEEILAKTPPDVVTTGYATSSDSLSTRTYSTPAGHRVVISYTDNEIKSVSLEKAGSAGGSA [r15_175_JUSTAS]: -0.138 kcal/mol
- SAGGSAGGSAGGSNIILIPAKPGEEFKIKINGRPLKIQRDKDKPGYIMIEFPDGQWQPISAGGSAGGSAGGS [r4_488_TrROS]: -0.174 kcal/mol
- SAGGSAGGSAGGSGMPQPTTVLTTEYYPPGVVVKKDIVYSPSGGAEEVEVSFYPSPELLSAGGSAGGSAGGS [r4_57_JUSTAS]: < -1 kcal/mol

====

# Lookup of reported folding stability dG unfold keyed by entry
- method: folding stability dG unfold from trypsin proteolysis; higher = more stable
recorded endpoint: folding stability dG unfold (kcal/mol)

* SAGGSASVPPGKSVTLRISFPETGEERTITLDVKSSEELEAAAELEVPRPDGTPVPVTVSVVETVPSAGGSA [r15_797_JUSTAS] | 0.386
* SAGGSAIKITKVEYEPNPDGWREIHFKATPGDPDFLDEIAEALPPDNIEPTEVDEKGYYEIRIPRPSAGGSA [r15_386_TrROS] | 0.0955
* SAGGSAGGSAGGMVVTVKVGDETIEIDTETGTATVTPPATGTTTTVPASEVEPITPELLSAGGSAGGSAGGS [r10_709_JUSTAS] | 0.945
* SAGGSAGGSAGMEDLVTVTETVETTDTLRDEGGTPTGTTTTTTTVTKLLSPEKVAALKEASAGGSAGGSAGG [r11_620_JUSTAS] | -0.116
* SAGGSAGGSAMLKVTVKVPGTSKDYDFNVPESVGKEEAEKRLEEEYPGAEVTEIVEIPGEELSAGGSAGGSA [r18_242_JUSTAS] | 0.545
* SAGGSAGGSAGSKTITFIMVHPDDGYISDMEMRYTDNGIEMEMEWIPVPKEDAEELKDLISAGGSAGGSAGG [r11_47_TrROS] | 0.225
* SAGGSAGGSAGMKTYTVPLPGGDPALIEQTAQDIVEKIPGLEDHEVKVDAGDDGTLTIVESAGGSAGGSAGG [r17_324_JUSTAS] | -0.736
* SAGGSAGGSAGGKVLVRFPTGEVPEVVEIDVPFEAGDPEKAKEIADELLAKGAEEVVLEDSAGGSAGGSAGG [r11_196_TrMRF] | 0.117
* SAGGSAGGSAGGRTIHINGATPERIIKWLKEWPPDEPVEIHYHGPNNKHREIPIDELKKSAGGSAGGSAGGS [r10_732_TrROS] | -0.0271
* SAGGWIPIDEIKDLLDNGKPMPLEQIVKEIQKDFGYPVTIEEDDDSFWIHVENPNTGEPREEIEIDPSAGGS [r8_105_TrROS] | 0.354

====

- method: folding stability dG unfold (combined trypsin and chymotrypsin); higher = more stable
# Lookup of reported folding stability dG unfold keyed by entry
recorded endpoint: folding stability dG unfold (kcal/mol)

- SAGGSAGGSAGGSALDRPVPVLVTGSIPLDGKFEDALGAAKAIEEEFAPYGYIVLSDVHVSAGGSAGGSAGG [r17_197_TrMRF]: -0.0552
- SKKWKVDLDIQEDPDNGTVIGMVRVESEDGEKRPPPEEIARELAEKLREKGYKVEAEPHPGWFMITVKPPSA [r9_510_TrROS]: 0.153
- SAGGSAGGMTVPASSYEGVPLKVTVSRGDENVSAEEAEVTPLPDGTVVVKLPESLPEDTEVTLESAGGSAGG [r6_630_JUSTAS]: -0.137

====

- method: folding stability dG unfold (combined trypsin and chymotrypsin); higher = more stable
Given measured folding stability dG unfold, output Yes if it is greater than or equal to -0.3 kcal/mol and No if not.

- SAGMSSSEVIDIDAGPEKLKELVAKIKKESPNYTIVVTDPETGKPTLLDPSELKNIPGPVKLTITKYPQSAG [r5_437_JUSTAS]: No
- SAGGSAGGSAGGMPVVVINTPSEEEAEKEKAKLEEDPEYKDGPINFIYIPPGTLPENVPLSAGGSAGGSAGG [r7_976_JUSTAS]: No
- SAGGSASVPPGKSVTLRISFPETGEERTITLDVKSSEELEAAAELEVPRPDGTPVPVTVSVVETVPSAGGSA [r15_797_JUSTAS]: Yes
- SAGGSAGSMSIEEVVEKAKEEGIEVEVTSLPESGLTVVTITKKLPNGEVVESIILEHPEGTTTVLSSAGGSA [r15_1051_JUSTAS]: Yes
- SAGGWIPIDEIKDLLDNGKPMPLEQIVKEIQKDFGYPVTIEEDDDSFWIHVENPNTGEPREEIEIDPSAGGS [r8_105_TrROS]: No
- SMPVTFTMKTPENRKKLEEAIKEIEEEYPIKVEEVEKDPKGTYTYKVEMDPEIIEKVKKKLEEAGNVTLESA [r9_472_JUSTAS]: No

====

- method: folding stability dG unfold (combined trypsin and chymotrypsin); higher = more stable
Given measured folding stability dG unfold, output TRUE if it is greater than or equal to -0.2 kcal/mol and FALSE if not.

• SALINLKKEDVEKLVKALEKEGNYKVKIKPVKVVYKPKDGSKKPIGAVKIEVIDPDNPKSLLDKIKKAGSAG [r14_628_TrMRF] = FALSE
• SAGGSAGGSAGMEDLVTVTETVETTDTLRDEGGTPTGTTTTTTTVTKLLSPEKVAALKEASAGGSAGGSAGG [r11_620_JUSTAS] = FALSE
• SAGMEIKIEKLEDGTYKITIKLYNKETNEEIEEIEIEVKKLKDGTYKVKIKIKNKETGKEFELEFEIKPSAG [r5_610_TrROS_Hall] = TRUE
• SAGGSAGGSAGGPPEITVEHHPPNGYMTLTIPDGRPIEIPMPPNRPPSDVKNRAKDLIKSAGGSAGGSAGGS [r10_33_TrROS] = FALSE
• SSPGLVEVTIPLKIVLEPLAPDGTPAPRPVATVPIKTAASSEDPSAIEQAKEDVIKELKPEFPDAKFVVESA [r9_1112_JUSTAS] = FALSE
• SAGGSAGGMSPDVEVVTVERVITTTEPVSPSLSPEYLKAYPNATKTTTTVTVTVVPKERFEELTSAGGSAGG [r6_831_JUSTAS] = FALSE
• SAGGSAGGSEPDFVVVDIPFPPDVPLEALVEFARSLPSVVVNLVDEEGRPVSIALPREAVERLASAGGSAGG [r6_791_TrMRF] = FALSE
• SAGGSAGGSAGGMYVIKITMGDRPRSIMVPPDNPEEIKNQLRDLGYNIKEISVERFPPGSAGGSAGGSAGGS [r10_405_TrROS] = FALSE
• SAGGSAGGSAGGSIEIDVNPEAGQLKIEIEMPMPNPNGKPRGPMRMEQEFRIDDPEDIKSAGGSAGGSAGGS [r4_10_TrROS] = FALSE
• SAGGSAGGSAGGMTITLEFTTEEEVEAYAKEIGATKVEVTREKTETPEERIKATIEKPGSAGGSAGGSAGGS [r10_494_JUSTAS] = FALSE
• SAGGSAIKITKVEYEPNPDGWREIHFKATPGDPDFLDEIAEALPPDNIEPTEVDEKGYYEIRIPRPSAGGSA [r15_386_TrROS] = FALSE
• SAGGSAGGSMPLRLAPVPIFLPEEEAVPVIEKLIEEGTEGGVGLIVPNVISPEEAGVHPDEPVSAGGSAGGS [r12_93_TrMRF] = FALSE
• SAGGSAGGSAGSKTITFIMVHPDDGYISDMEMRYTDNGIEMEMEWIPVPKEDAEELKDLISAGGSAGGSAGG [r11_47_TrROS] = TRUE
• SAGGSAGGSATITISLGPPEYIEVYDPANGVKRKFPASVPKEEVAAEIEKEYPDTPVVFTTDASAGGSAGGS [r12_423_JUSTAS] = TRUE
• SAGGSAGGSAGPPVLVSINPDENATVEVRTRPDGKPVLLFTVPKTGEVLVVHPDGKIDNSSAGGSAGGSAGG [r11_601_TrMRF] = FALSE
• SAGGSAGGSAGGMVVTVKVGDETIEIDTETGTATVTPPATGTTTTVPASEVEPITPELLSAGGSAGGSAGGS [r10_709_JUSTAS] = TRUE
• SAGGSAGGSAMIVVTLDDPEEAREAVRARFGPEVEITPLETTTVGDRVFTKIAVRVPPELASAGGSAGGSAG [r3_87_JUSTAS] = FALSE
• SAGGSAGGSVKELAKKLNIKEVKVEPVDGEKVTLIKIKVKNKKTKKEYEKTILIKDKKTGKILSAGGSAGGS [r12_133_TrROS_Hall] = FALSE
• SAGGSAGGSSSPEEIKAEFKKKGYPKVEVKPVTPDTYLVTVTSPGTGKTTEYPITGSPSGKGLSAGGSAGGS [r12_170_JUSTAS] = FALSE
• SAGGSAPNEEITIPIRIRVENPEDGKPIHEIPIPIKVPKGQTQDQILDQAKNWMEEHGMKIKEIEISAGGSA [r15_195_TrROS] = FALSE
• SAGGSAGGSAGPPIYWRIEFENPGKKHTMTIPRDMPVDDIKEIADEIAKRFPMPISIEPVSAGGSAGGSAGG [r11_515_TrROS] = FALSE
• SAGGSAGGSAMPIPALVLVERPLPDGETEEREIPVIVEPDKIDEIIEEAEKEGYKVKEVKASAGGSAGGSAG [r3_453_TrMRF] = FALSE
• SAGGSAGGSAGGRMYPITFPGKTIEDIEEEIEELPPNYQINIDHDENGHMKVWIMPPDDFSAGGSAGGSAGG [r7_662_TrROS] = FALSE
• SAGGSAGGSAGGSSTITIGDSEVSVTADPKAPVATASYPASGVTFTITRPDASVTITPTPSAGGSAGGSAGG [r7_156_JUSTAS] = FALSE
• SGPDVPLTPEEVAARIKAELLEKHPIGEVTPVELREFPELGVVEVRLRINVKGPPGETREIDVRLSRERLSA [r9_1002_JUSTAS] = TRUE
• SAGGSAGGSAGGKKTIWIPVKIEPVPDGVRIKFPDGNPIIIPPNHKVEHTPGWMRITLDSAGGSAGGSAGGS [r10_305_TrROS] = FALSE

Values from the supplement of paper PMC12764529
